Reported pIC50 values are given for each entry in this list.
biological target: IL-17A(FLAG-tagged): IL-17RA(His-tagged) (Homo sapiens, UniProt Q16552, K93Q); assay: IL-17A(FLAG-tagged): IL-17RA(His-tagged) binding disruption Eu-HTRF assay; settings: class of the average IC50 where tested more than once
Sequence (Q16552 with tags, fused parts or gaps K93Q): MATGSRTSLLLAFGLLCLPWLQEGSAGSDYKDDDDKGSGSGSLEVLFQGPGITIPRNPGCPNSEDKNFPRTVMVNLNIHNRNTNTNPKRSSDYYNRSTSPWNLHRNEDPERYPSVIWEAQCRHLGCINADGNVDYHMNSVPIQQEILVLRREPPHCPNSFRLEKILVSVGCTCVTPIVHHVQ
pIC50: −log10 of the molar value.

Some entries whose results are on file:
Problem: For CC(C)[C@H]1C[C@@H](Cc2cnn3cc([C@@H](NC(=O)c4nonc4C4CC4)C4CCC(F)(F)CC4)nc3c2)C(=O)N1 (relative stereo) [Example 94] , what is its reported pIC50?
Solution: > 6.40

Problem: For O=C(N[C@H](c1cn2ncc(CC3CCNC3=O)cc2n1)C1CCC(F)(F)CC1)c1nonc1C1CC1 (single isomer, unassigned) [Example 22] , what is its reported pIC50?
Solution: < 5.40

Problem: For O=C(N[C@H](c1cn2ncc(CC3C(=O)NCC3C(F)(F)F)cc2n1)C1CCC(F)(F)CC1)c1nonc1C1CC1 (single isomer, unassigned) [Example 50] , what is its reported pIC50?
Solution: 5.40 to 6.40

Problem: For Cc1nonc1C(=O)N[C@H](c1cn2ncc(CC3C[C@@H](C(F)(F)F)NC3=O)cc2n1)C1CCC(F)(F)CC1 (single isomer, unassigned) [Example 9] , what is its reported pIC50?
Solution: > 6.40

Problem: For O=C(N[C@H](c1cn2ncc(CC3CC(F)(F)CNC3=O)cc2n1)C1CCC(F)(F)CC1)c1nonc1C1CC1 (single isomer, unassigned) [Example 2] , what is its reported pIC50?
Solution: 5.40 to 6.40

More entries:
Problem: For C[C@@H]1CNC(=O)[C@@H]1Cc1cnn2cc([C@@H](NC(=O)c3nonc3C3CC3)C3CCC(F)(F)CC3)nc2c1 (relative stereo) [Example 88] , what is its reported pIC50?
Solution: 5.40 to 6.40

Problem: For O=C(N[C@H](c1cn2ncc([C@H](O)[C@H]3C[C@H](C(F)(F)F)NC3=O)cc2n1)C1CCC(F)(F)CC1)c1nonc1C1CC1 (relative stereo) [Example 63] , what is its reported pIC50?
Solution: 5.40 to 6.40

Problem: For O=C(N[C@H](c1cn2ncc(C[C@H]3C[C@@H](C(F)(F)F)NC3=O)cc2n1)C1CCC(F)(F)CC1)c1nonc1C1CC1 (relative stereo) [Example 71] , what is its reported pIC50?
Solution: 5.40 to 6.40

Problem: For C[C@H](c1cnn2cc([C@@H](NC(=O)c3nonc3C3CC3)C3CCC(F)(F)CC3)nc2c1)[C@@H]1C[C@@H](C(F)(F)F)NC1=O (relative stereo) [Example 81] , what is its reported pIC50?
Solution: > 6.40
